Assay info: antimalarial activity against Dd2 strain (AID 2302);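 note: 0% = DMSO untreated growth and 100% = chloroquine plus artemisinin killed control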
Setup conditions: P. falciparum Dd2 in RBCs, LDH growth readout, 72 h; at 2 µM; hits give high values
In this section we review reported growth inhibition values for a set of molecules.
Entry rule: numbers only, all in %.

Guide cases for growth inhibition, answers given:
>>> assay_result("O=C(c1ccc(-c2ccc(-c3nc4ccccc4[nH]3)s2)cc1)N1CCCCC1CN1CCC(O)C1 (centres undefined)")
55
>>> assay_result("N#Cc1ccc(CN2CCC(NC(=O)c3ccc(-c4nnc(-c5cccc6ccccc56)o4)cc3)CC2)cc1")
14
>>> assay_result("O=C(Nc1ccccc1)N(Cc1cccc(-c2ccc(CNCCc3ccccc3)cc2)c1)C1CCN(Cc2ccccc2)CC1")
95

// switching to the query molecule
// field: growth inhibition; key: CC1CC(NCCCNc2cc(=O)c3ccccc3[nH]2)c2cc(Cl)c(Cl)c(Cl)c21 (centres undefined) ; value = 69
